Entry source: PubChem BioAssay AID1259418

- EXPERIMENTAL_TARGET: T. gondii ME49Luc in IFN-y HeLa, luciferase, 72 h
- RUN_DESCRIPTION: T. gondii growth inhibition with IFN-gamma, dose response, cell-based, ME49Luc, HeLa, luciferase, 72 h (AID 1259418)
Inconclusive results are not listed.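 Rule for the calls: active = fitted half-maximal concentration of signal decrease at or below twice the sample's top tested concentration; inconclusive = flat curve between -70 and -30 percent, or poor fit; inactive = flat within 30 percent, signal rise, or potency above limit.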
Pick one: active, inactive

Worked examples, 3 compounds total:
# COMPOUND, CATEGORY
records = [
    ("COc1cccc(C#Cc2ccc([C@@H]3[C@@H](C#N)N[C@@H]3CO)cc2)c1", "active"),
    ("COc1cccc(-c2nc3c(s2)CN(C(=O)Nc2ccc(C)c(F)c2)CC3)c1", "active"),
    ("COc1cc(OC)cc(C(=O)Nc2ccc(-c3nc(-c4ccc(C)cc4C)co3)cc2)c1", "active"),
]

Ask: What outcome does the record of this test show for CC(C)NC(=O)N1CC(=O)N2[C@@H](CO)[C@H](c3ccc(/C=C/c4ccccc4)cc3)[C@@H]2C1 ?
Result: active

Ask: Given CCOc1ccc(-c2nc(CN3CCN(C(=O)Nc4ccc(F)cc4)CC3)c(C)o2)cc1 , state the outcome it received in this test.
Result: active

Ask: // param item: CC(C)CNc1nc2c(cc1C(=O)NCC1CC1)CCN(c1ccncn1)CC2 ; yields the recorded call
Result: active

Ask: Please share the test call associated with Cc1ccc(-c2nc(CN3CCN(C(=O)Nc4ccccc4)CC3)c(C)o2)cc1 .
Result: active

Ask: Query: recorded result category for CCOc1ccccc1N(Cc1nc(-c2ccc(OC)cc2)oc1C)S(=O)(=O)c1ccccc1 in this test
Result: active

Ask: Name the outcome recorded for O=C(CC1N=C2c3ccccc3N=C(SCc3ccccc3Cl)N2C1=O)NCCc1ccccc1 (stereo not drawn) in the assay.
Result: active

Ask: Please state the recorded outcome for this compound: COc1cccc(CNC2=NCCNC23CCN(S(=O)(=O)c2ccc4c(c2)CCCC4)CC3)c1
Result: active

Ask: Name the outcome recorded for Cc1ccc(CNC2=NCCNC23CCN(S(=O)(=O)c2ccc(CC(C)C)cc2)CC3)cc1 in the assay.
Result: active

----------
- EXPERIMENTAL_TARGET: T. gondii ME49Luc in IFN-y HeLa, luciferase, 72 h
- RUN_DESCRIPTION: T. gondii growth inhibition with IFN-gamma, dose response, cell-based, ME49Luc, HeLa, luciferase, 72 h (AID 1259418)
Inconclusive results are not listed. Activity calls are given as the source filed them.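 The calls were made as follows: active = fitted half-maximal concentration of signal decrease at or below twice the sample's top tested concentration; inconclusive = flat curve between -70 and -30 percent, or poor fit; inactive = flat within 30 percent, signal rise, or potency above limit.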
Allowed answers: active, inactive

# MOLECULE, CATEGORY
rows = [
    ("Cc1nc(OCC(=O)Nc2cc(F)ccc2F)c2ccccc2n1", "inactive"),
    ("COc1ccccc1C(=O)Nc1ccc(-c2nc(-c3cc(C)ccc3C)co2)cc1", "active"),
    ("COc1ccc(-c2nc(CN(c3ccc(C)cc3)S(=O)(=O)c3cccs3)c(C)o2)cc1OC", "active"),
    ("O=C(CCCCCNc1nc(=S)[nH]c2ccccc12)N1CCC(O)(c2cccc(C(F)(F)F)c2)CC1", "inactive"),
    ("CS(=O)(=O)N1CSC[C@@H]1C(=O)NCCc1csc(-c2ccccc2)n1", "active"),
    ("Cc1ccsc1C(=O)N1CCc2nc(N3CCOCC3)nc(NC(C)C)c2C1", "inactive"),
    ("O=C(Cc1ccncc1)N1CCCCN2[C@H](CO)[C@H](c3ccc(C#Cc4ccccc4F)cc3)[C@@H]2C1", "active"),
    ("Cc1cc(C(C)(C)CC(C)(C)C)ccc1OCCOCC[N+](C)(C)Cc1ccccc1", "active"),
    ("COc1ccccc1-c1nc(CN(c2ccccc2OC)S(=O)(=O)c2ccc(C)cc2)c(C)o1", "active"),
    ("Cc1cc(C(=O)N2CCC(c3cc4c(ncn4C)c(NCC4CC4)n3)CC2)ccc1Cl", "active"),
]

Ask: For Cc1ccccc1-c1ccc(C2[C@@H]3CN(C(=O)C4CCOCC4)C[C@H]2N3)cc1 (stereo not given in full) , what call appears in the results of this test?
Result: active

Ask: Please state the recorded outcome for this molecule: COc1ccc(-c2nc(NCCN3CCC(C)CC3)c3ccccc3n2)cc1
Result: active

Ask: I'd appreciate the recorded outcome for Cc1ccc(C(=O)Nc2c(C(=O)NCc3ccccn3)[nH]c3ccc(C)cc23)cc1 from this test.
Result: active

Ask: For COc1cc(Nc2nc(SCc3ccc(F)cc3)nc3ccccc23)cc(OC)c1 , what call appears in the results of this test?
Result: active

Ask: Tell me the assay call for Cc1cc(C)c(S(=O)(=O)N2CCC3(CC2)NCCN=C3NCc2ccc3c(c2)OCO3)cc1C please.
Result: active

----------
- EXPERIMENTAL_TARGET: T. gondii ME49Luc in IFN-y HeLa, luciferase, 72 h
- RUN_DESCRIPTION: T. gondii growth inhibition with IFN-gamma, dose response, cell-based, ME49Luc, HeLa, luciferase, 72 h (AID 1259418)
Inconclusive results are not listed.
Documented AC50 across a set of compounds

Sample answers from the record:
# COMPOUND, MEASURED_PARAMETER, MEASURED_VALUE
data = [
    ("Cc1ccc(NC(=O)CN2CCC3(CC2)N=C(c2cccc(Cl)c2)C(=O)N3)cc1", "AC50", "28 µM"),
    ("Cc1ccc2[nH]c(C(=O)NCc3ccncc3)c(NC(=O)c3ccc(F)cc3)c2c1", "AC50", "1.99 µM"),
    ("CCOc1ccc(-c2nc(CN(c3ccc(OCC)cc3)S(=O)(=O)c3ccccc3)c(C)o2)cc1", "AC50", "17.1 µM"),
]

Attention now turns to another entry.
Ask: Fill in: AC50 of O=C(CC1N=C2c3ccccc3N=C(SCc3ccc(F)cc3)N2C1=O)NCc1cccs1 (centres undefined) is ___
Result: 35 µM

----------
- EXPERIMENTAL_TARGET: T. gondii ME49Luc in IFN-y HeLa, luciferase, 72 h
- RUN_DESCRIPTION: T. gondii growth inhibition with IFN-gamma, dose response, cell-based, ME49Luc, HeLa, luciferase, 72 h (AID 1259418)
Records with an inconclusive call do not appear. Calls of active or inactive are those of the source.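 Rule for the calls: active = fitted half-maximal concentration of signal decrease at or below twice the sample's top tested concentration; inconclusive = flat curve between -70 and -30 percent, or poor fit; inactive = flat within 30 percent, signal rise, or potency above limit.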
// classify into YES for active, NO for inactive

Look over these answered cases.
# COMPOUND, EXPERIMENTAL_TARGET, CATEGORY
measured = [
    ("Cc1ccc(OCC(=O)Nc2ccc(-c3nc(-c4ccccc4)co3)cc2)cc1", "T. gondii ME49Luc in IFN-y HeLa, luciferase, 72 h", "NO"),
    ("COc1ccccc1-c1nc(C)c(-c2ccc(SCc3c(F)cccc3Cl)nn2)s1", "T. gondii ME49Luc in IFN-y HeLa, luciferase, 72 h", "YES"),
    ("COc1ccc(-c2nc(NCCCN3CCN(C)CC3)c3ccccc3n2)cc1", "T. gondii ME49Luc in IFN-y HeLa, luciferase, 72 h", "YES"),
    ("CCC(=O)N1CCC2(CC1)Nc1ccc(Cl)cc1-n1cccc12", "T. gondii ME49Luc in IFN-y HeLa, luciferase, 72 h", "YES"),
    ("O=S(=O)(c1cccs1)N1CCC2(CC1)NCCN=C2NCc1ccc(Cl)cc1", "T. gondii ME49Luc in IFN-y HeLa, luciferase, 72 h", "NO"),
    ("CC(C)CNC(=O)c1nc2c(s1)CCN(C(=O)NCc1ccccc1)CC2", "T. gondii ME49Luc in IFN-y HeLa, luciferase, 72 h", "YES"),
    ("CCCNC(=O)N1C[C@@H]2N[C@H](C1)C2c1ccc(-c2ccccc2C)cc1 (stereo not given in full)", "T. gondii ME49Luc in IFN-y HeLa, luciferase, 72 h", "YES"),
    ("CC(C)c1ccc(S(=O)(=O)N2CCC3(CC2)NCCN=C3NCc2ccc3c(c2)OCO3)cc1", "T. gondii ME49Luc in IFN-y HeLa, luciferase, 72 h", "YES"),
    ("O=C(NCc1cncc2c1CCN(Cc1cccc(F)c1)C2)C1CC1", "T. gondii ME49Luc in IFN-y HeLa, luciferase, 72 h", "YES"),
    ("COc1ccc(-c2nc(NCCCN3CCC(N4CCCCC4)CC3)c3ccccc3n2)cc1", "T. gondii ME49Luc in IFN-y HeLa, luciferase, 72 h", "YES"),
]

Ask: Recorded test outcome, item N#C[C@H]1[C@H](c2ccc(C#Cc3ccccc3F)cc2)[C@@H](CO)N1C(=O)c1cccnc1
Result: NO

Ask: # fetch the recorded call for COc1ccc(CNC(=O)CCC2N=C3c4ccccc4N=C(SCc4cccc(F)c4)N3C2=O)cc1 (stereo not given) here
Result: YES

Ask: How did this test come out for CCN1CCCC1CNC(=O)C1CCN(Cc2cc3ccccc3n2Cc2cccc(C)c2)CC1 (stereo not given) ?
Result: YES

Ask: Dear all, I need the recorded test outcome for CCOc1ccc(N(Cc2nc(-c3ccccc3)oc2C)S(=O)(=O)c2ccccc2)cc1 , thank you.
Result: YES

Ask: I would be grateful if you could indicate the recorded call for Cc1ccc(CN2CC3CN(Cc4cccc(F)c4)CC3C2)s1 (stereo not given) .
Result: YES

Ask: Returns: the outcome recorded for CCC(C)Nc1nc(-c2ccc(OC)cc2)nc2ccccc12 (stereo not given) in this assay.
Result: NO

Ask: GET /call?item= COc1cccc(-c2nc(Cn3c(=O)c4c(C)cc(C)nc4n(-c4ccccc4)c3=O)c(C)o2)c1OC returns the recorded outcome of this test.
Result: NO

Ask: Hi, do you know how COc1ccccc1-c1nc(Cn2nnc(-c3nc(-c4cccc(C(F)(F)F)c4)no3)c2C)c(C)o1 came out in this test?
Result: NO

Ask: // outcome(item) with item = Cc1ccccc1S(=O)(=O)N1C[C@@H]2N[C@H](C1)C2c1ccc(/C=C/c2ccccc2)cc1 (stereo not given in full)
Result: YES

Ask: Tell me the assay call for Cc1nc(OCC(=O)Nc2ccc(Cl)c(Cl)c2)c2ccccc2n1 please.
Result: NO

Ask: // param item: CC(C)C#Cc1ccc([C@H]2[C@@H](CO)N3C(=O)CN(C(=O)NC4CCCC4)C[C@H]23)cc1 ; yields the recorded call
Result: NO

Ask: I'd appreciate the recorded outcome for COc1cccc(C#Cc2ccc([C@@H]3[C@H](C#N)N(C(=O)c4ccccn4)[C@H]3CO)cc2)c1 from this test.
Result: YES

Ask: I'd appreciate the recorded outcome for O=C(CC1N=C2c3ccccc3N=C(SCc3cccc(Cl)c3)N2C1=O)NCCc1ccccc1 (stereo not given) from this test.
Result: YES

Ask: For Cc1cccc(C(=O)Nc2c(C(=O)N3CCN(c4ccccn4)CC3)[nH]c3ccccc23)c1 , which call appears in the assay record?
Result: NO

Ask: I would be grateful if you could indicate the recorded call for Cc1ccccc1-c1ccc([C@@H]2[C@@H](CO)N3CCCCN(S(=O)(=O)Cc4ccccc4)C[C@H]23)cc1 .
Result: YES
